# measured_on: gp140CN54 (subtype B'/C), gp140 envelope glycoprotein from the HIV-1 group M CRF07-B/C-clade isolate 97CN54 (HIV-1)
# experiment_summary: binding of purified VHH to gp140 CN54 (method not given)
property_label: K50 (50% binding concentration; column head reads KD) (µg/mL)
Report as a plain number; the unit µg/mL is understood.

Fill in K50 (50% binding concentration; column head reads KD) for record L8Cj3 Mutant 11 (VHH) VHH: EVQLVESGGGLVQAGGFLRLSCELRGSIFNQYAMAWFRQAPGKEREFVAGMGAVPHYGEFVKGRFTISRDNAKSTVYLQMSSLKPEDTAIYFCARSKSTYISYNSNGYDYWGQGTQVTVSS
9.26
